- Tested on: CAL-148
- procedure.text: normalised response (% of control), CellTiter-Glo; higher = more viable cells (100 = DMSO, 0 = benzethonium chloride kill control)
- experimental.conditions: incubation time: 72 h
endpoint.name: normalised response (%)

compound	endpoint.name	value.measured
C[C@@H](C(=O)O)c1ccc(-c2ccccc2)c(F)c1 [Tarenflurbil] (100 nM)	normalised response	90.3
CCN(CC)CCOc1ccc(C(=C(Cl)c2ccccc2)c2ccccc2)cc1 [Clomifene] (100 nM)	normalised response	109
NC1(c2ccc(-c3nc4ccn5c(=O)[nH]nc5c4cc3-c3ccccc3)cc2)CCC1 [MK-2206] (10 nM)	normalised response	107
Cc1cc2c(F)c(Oc3ncnn4cc(OC[C@@H](C)O)c(C)c34)ccc2[nH]1 [Brivanib] (10 nM)	normalised response	108
N[C@@H](Cc1ccc(N(CCCl)CCCl)cc1)C(=O)O [Melphalan] (125 nM)	normalised response	78.3
Cc1c(C(=O)Nc2ccc(N3C[C@@H](C)O[C@@H](C)C3)nc2)cccc1-c1ccc(OC(F)(F)F)cc1 [Erismodegib] (100 nM)	normalised response	92.7
COc1cc(Nc2ncc(F)c(Nc3ccc4c(n3)N(COP(=O)(O)O)C(=O)C(C)(C)O4)n2)cc(OC)c1OC [Fostamatinib] (25 nM)	normalised response	88.7
COc1cc2c(cc1-c1c(C)noc1C)ncc1[nH]c(=O)n([C@H](C)c3ccccn3)c12 [I-BET151] (100 nM)	normalised response	110
COc1cc2c(N3CCN(C(=O)Nc4ccc(OC(C)C)cc4)CC3)ncnc2cc1OCCCN1CCCCC1 [Tandutinib] (10 nM)	normalised response	102
CC(C)C(=O)Nc1ccc([N+](=O)[O-])c(C(F)(F)F)c1 [Flutamide] (100 nM)	normalised response	100

====

Items are presented alongside their recorded normalised response.
- Test system: MFM-223
- procedure.text: normalised response (% of control), CellTiter-Glo; higher = more viable cells (100 = DMSO, 0 = benzethonium chloride kill control)
- experimental.conditions: incubation time: 72 h
endpoint.name: normalised response

compound	tested.on	value.measured
CC/C(=C(\c1ccccc1)c1ccc(OCCN(C)C)cc1)c1ccccc1 [Tamoxifen] (10000 nM)	MFM-223	58.2%
O=C(c1cc(Cc2n[nH]c(=O)c3ccccc23)ccc1F)N1CCN(C(=O)C2CC2)CC1 [Olaparib] (10000 nM)	MFM-223	88.5%
C[C@]12C=CC(=O)C=C1CC[C@@H]1[C@@H]2C(=O)C[C@@]2(C)[C@H]1CC[C@]2(O)C(=O)CO [Prednisone] (10000 nM)	MFM-223	97.4%
Cc1c(C(=O)Nc2ccc(N3C[C@@H](C)O[C@@H](C)C3)nc2)cccc1-c1ccc(OC(F)(F)F)cc1 [Erismodegib] (10000 nM)	MFM-223	80.8%
CC(C)NC[C@@H](C(=O)N1CCN(c2ncnc3c2[C@H](C)C[C@H]3O)CC1)c1ccc(Cl)cc1 [GDC-0068] (10000 nM)	MFM-223	23.3%
C[C@@H](C(=O)O)c1ccc(-c2ccccc2)c(F)c1 [Tarenflurbil] (10000 nM)	MFM-223	92.8%
NC(=O)NO [Hydroxyurea] (100000 nM)	MFM-223	104%

====

- System: HDQ-P1
- procedure.text: drug sensitivity score (DSS), CellTiter-Glo (DSS (AUC-based score)); higher = stronger drug effect (viability inhibition or cytotoxicity); extreme values may be limits of the assay
- experimental.conditions: incubation time: 72 h

compound.structure.string	tested.on	drug sensitivity score
N[C@@H](Cc1ccc(N(CCCl)CCCl)cc1)C(=O)O	HDQ-P1	19.5
Cn1cc(C[C@@H](N)C(=O)O)c2ccccc21	HDQ-P1	0
COc1cc2c(cc1-c1c(C)noc1C)ncc1[nH]c(=O)n([C@H](C)c3ccccn3)c12	HDQ-P1	3.02
CO[C@H]1C[C@@H]2CC[C@@H](C)[C@@](O)(O2)C(=O)C(=O)N2CCCC[C@H]2C(=O)O[C@H]([C@H](C)C[C@@H]2CC[C@@H](O)[C@H](OC)C2)CC(=O)[C@H](C)/C=C(\C)[C@@H](O)[C@@H](OC)C(=O)[C@H](C)C[C@H](C)/C=C/C=C/C=C/1C	HDQ-P1	2.98
O=C(c1cc(Cc2n[nH]c(=O)c3ccccc23)ccc1F)N1CCN(C(=O)C2CC2)CC1	HDQ-P1	0
NC1(c2ccc(-c3nc4ccn5c(=O)[nH]nc5c4cc3-c3ccccc3)cc2)CCC1	HDQ-P1	0
CC[C@H](CC#N)OC(=O)N[C@@H](C)c1cccc(NC(=O)Nc2ccc(-c3cnco3)c(OC)c2)c1	HDQ-P1	11.7
NC(=O)c1cccc2cn(-c3ccc([C@@H]4CCCNC4)cc3)nc12	HDQ-P1	0
C[C@@H]1C[C@H]2[C@@H]3CCC4=CC(=O)C=C[C@]4(C)[C@@]3(F)[C@@H](O)C[C@]2(C)[C@@]1(O)C(=O)CO	HDQ-P1	4.16
CC[C@@H]1C(=O)N(C)c2cnc(Nc3ccc(C(=O)N[C@H]4CC[C@H](N5CCN(CC6CC6)CC5)CC4)cc3OC)nc2N1C(C)C	HDQ-P1	5.3
CC(C)(C)Cn1c(N)nc2ccc(-c3[nH]c(C(C)(C)C)nc3-c3ccc(F)cc3)nc21	HDQ-P1	0
CC/C(=C(\c1ccccc1)c1ccc(OCCN(C)C)cc1)c1ccccc1	HDQ-P1	0
CC(C)NC[C@@H](C(=O)N1CCN(c2ncnc3c2[C@H](C)C[C@H]3O)CC1)c1ccc(Cl)cc1	HDQ-P1	7.19

====

- Tested on: MDA-MB-453
- procedure.text: normalised response (% of control), CellTox Green; higher = less cell death (100 = DMSO, 0 = benzethonium chloride kill control)
- experimental.conditions: incubation time: 72 h

compound	normalised response / %
CC(C)(C)Cn1c(N)nc2ccc(-c3[nH]c(C(C)(C)C)nc3-c3ccc(F)cc3)nc21 (100 nM)	102
C[C@@H]1C[C@H]2[C@@H]3CCC4=CC(=O)C=C[C@]4(C)[C@@]3(F)[C@@H](O)C[C@]2(C)[C@@]1(O)C(=O)CO [Dexamethasone] (100 nM)	95.5
Nc1nc(Cl)nc2c1ncn2[C@@H]1O[C@H](CO)[C@@H](O)[C@@H]1F [Clofarabine] (1000 nM)	113
C[C@]12C=CC(=O)C=C1CC[C@@H]1[C@@H]2C(=O)C[C@@]2(C)[C@H]1CC[C@]2(O)C(=O)CO [Prednisone] (10000 nM)	100
CC/C(=C(\c1ccccc1)c1ccc(OCCN(C)C)cc1)c1ccccc1 [Tamoxifen] (100 nM)	100
C[C@@H](C(=O)O)c1ccc(-c2ccccc2)c(F)c1 [Tarenflurbil] (100 nM)	100
Cc1cc2c(F)c(Oc3ncnn4cc(OC[C@@H](C)O)c(C)c34)ccc2[nH]1 [Brivanib] (10 nM)	109

====

Listed compounds paired with reported drug sensitivity score
- Test system: HCC1937
- procedure.text: drug sensitivity score (DSS), CellTiter-Blue viability (DSS (AUC-based score)); higher = stronger viability inhibition; extreme values may be limits of the assay
- experimental.conditions: incubation time: 72 h
endpoint.name: drug sensitivity score

compound	endpoint.name	value.measured
O=NN(CCCl)C(=O)NC1CCCCC1 [Lomustine]	drug sensitivity score	0
Cc1c(N)nc([C@H](CC(N)=O)NC[C@H](N)C(N)=O)nc1C(=O)N[C@H](C(=O)N[C@H](C)[C@@H](O)[C@H](C)C(=O)N[C@H](C(=O)NCCc1nc(-c2nc(C(=O)NCCC[S+](C)C)cs2)cs1)[C@@H](C)O)[C@@H](OC1OC(CO)C(O)C(O)C1OC1OC(CO)C(O)C(OC(N)=O)C1O)c1cnc[nH]1 (some centres undefined) [Bleomycin]	drug sensitivity score	9.75
CC/C(=C(\c1ccccc1)c1ccc(OCCN(C)C)cc1)c1ccccc1 [Tamoxifen]	drug sensitivity score	0
COc1cc2c(N3CCN(C(=O)Nc4ccc(OC(C)C)cc4)CC3)ncnc2cc1OCCCN1CCCCC1 [Tandutinib]	drug sensitivity score	0
O=C(O)CC[C@H]1CC[C@@](c2cc(F)ccc2F)(S(=O)(=O)c2ccc(Cl)cc2)CC1 [MK-0752]	drug sensitivity score	0
CC(C)C[C@H](NC(=O)[C@H](CCc1ccccc1)NC(=O)CN1CCOCC1)C(=O)N[C@@H](Cc1ccccc1)C(=O)N[C@@H](CC(C)C)C(=O)[C@@]1(C)CO1 [Carfilzomib]	drug sensitivity score	27
O=C(c1cc(Cc2n[nH]c(=O)c3ccccc23)ccc1F)N1CCN(C(=O)C2CC2)CC1 [Olaparib]	drug sensitivity score	11.2
Cn1nnc2c(C(N)=O)ncn2c1=O [Temozolomide]	drug sensitivity score	0
Cc1cc2c(F)c(Oc3ncnn4cc(OC[C@@H](C)O)c(C)c34)ccc2[nH]1 [Brivanib]	drug sensitivity score	0

====

- Tested on: MDA-MB-231
- procedure.text: normalised response (% of control), CellTox Green; higher = less cell death (100 = DMSO, 0 = benzethonium chloride kill control)
- experimental.conditions: incubation time: 72 h

compound	normalised response (%)
Cc1c(N)nc([C@H](CC(N)=O)NC[C@H](N)C(N)=O)nc1C(=O)N[C@H](C(=O)N[C@H](C)[C@@H](O)[C@H](C)C(=O)N[C@H](C(=O)NCCc1nc(-c2nc(C(=O)NCCC[S+](C)C)cs2)cs1)[C@@H](C)O)[C@@H](OC1OC(CO)C(O)C(O)C1OC1OC(CO)C(O)C(OC(N)=O)C1O)c1cnc[nH]1 (some centres undefined) [Bleomycin] (10000 nM)	78
NC(=O)c1cccc2cn(-c3ccc([C@@H]4CCCNC4)cc3)nc12 [MK-4827] (10000 nM)	139
CC(C)(C)Cn1c(N)nc2ccc(-c3[nH]c(C(C)(C)C)nc3-c3ccc(F)cc3)nc21 (10000 nM)	47.1
Cc1c(N)nc([C@H](CC(N)=O)NC[C@H](N)C(N)=O)nc1C(=O)N[C@H](C(=O)N[C@H](C)[C@@H](O)[C@H](C)C(=O)N[C@H](C(=O)NCCc1nc(-c2nc(C(=O)NCCC[S+](C)C)cs2)cs1)[C@@H](C)O)[C@@H](OC1OC(CO)C(O)C(O)C1OC1OC(CO)C(O)C(OC(N)=O)C1O)c1cnc[nH]1 (some centres undefined) [Bleomycin] (1000 nM)	67.9
